assayDetails: Solubility of Tofacitinib citrate in different pH media and water
Format: physicochemical
testConditions: 37 °C, pH 4.9, thermodynamic from solid; Water; final pH observed 4.90; read-out: Solubility @37° C., mg/mL for 6 hours
endpoint: solubility at 6 h (mg/mL)
Hi! Could you send only the number? It should be in mg/mL, unit omitted.

Report solubility at 6 h for C[C@@H]1CCN(C(=O)CC#N)C[C@@H]1N(C)c1ncnc2[nH]ccc12.O=C(O)CC(O)(CC(=O)O)C(=O)O [Tofacitinib citrate]
2.9

====

assayDetails: Solubility of Tofacitinib citrate in different pH media and water
Assay type: physicochemical
testConditions: pH 6.8 medium, 37 °C, aqueous buffer, thermodynamic from solid; pH 6.8; final pH observed 6.78; read-out: Solubility @37° C., mg/mL for 6 hours
Procedure: The active substance is a white to off-white solid, slightly soluble in water (2.9 mg/mL) and non-hygroscopic. Tofacitinib contains two chiral centers at C3 and C4. The active substance is the enantiomer with absolute configuration (R) for both the C-3 and the C-4 positions. The overall stereochemistry of tofacitinib is therefore considered as critical and is assured by the quality of the starting materials and the route of synthesis design. Polymorphism has been studied for the active substance. […]
endpoint: solubility at 6 h (mg/mL)
Hi! Could you send only the number? It should be in mg/mL, unit omitted.

Report solubility at 6 h for C[C@@H]1CCN(C(=O)CC#N)C[C@@H]1N(C)c1ncnc2[nH]ccc12.O=C(O)CC(O)(CC(=O)O)C(=O)O [Tofacitinib citrate]
2.03
